Source of measurements: patent US9346798B2

Measured on: Nav 1.5 (Homo sapiens (Human))
Protocol notes: Nav 1.5 in vitro assay, IonWorks Quattro (IWQ) population patch-clamp
Assay type: cell-based
Test context: HEK 293 cells stably transfected with Nav 1.5; 26th pulse to -20 mV
Define the label as rule met when IC50 is strictly less than 1 µM and as rule not met in all remaining cases.

| Molecule | Measured on | Class assignment |
| --- | --- | --- |
| COc1cc(Cl)ccc1N1CCOc2cc(S(=O)(=O)Nc3nccs3)ccc21 | Nav 1.5 (Homo sapiens (Human)) | rule not met |
| COc1ccc(N2CCOc3cc(S(=O)(=O)Nc4nccs4)ccc32)cc1OC | Nav 1.5 (Homo sapiens (Human)) | rule not met |
| CN1CCN(c2cc(C(F)(F)F)ccc2N2CCOc3cc(S(=O)(=O)Nc4nccs4)ccc32)CC1 [Example 50, 2,2,2-Trifluoroacetate] | Nav 1.5 (Homo sapiens (Human)) | rule met |
| O=S(=O)(Nc1nccs1)c1ccc2c(c1)OCCN2c1cc(F)ccc1F [Example 83, 2,2,2-Trifluoroacetate] | Nav 1.5 (Homo sapiens (Human)) | rule not met |
| N#Cc1cc(C(F)(F)F)ccc1N1CCOc2cc(S(=O)(=O)Nc3cscn3)ccc21 | Nav 1.5 (Homo sapiens (Human)) | rule not met |
| N#Cc1cc(-c2ccccc2F)ccc1N1CCOc2cc(S(=O)(=O)Nc3nccs3)ccc21 | Nav 1.5 (Homo sapiens (Human)) | rule not met |
| Cc1ccc(Cl)cc1N1CCOc2cc(S(=O)(=O)Nc3nccs3)ccc21 [Example 178, 2,2,2-Trifluoroacetate] | Nav 1.5 (Homo sapiens (Human)) | rule not met |
| COc1cc(C#N)ccc1N1C[C@@H](C)Oc2cc(S(=O)(=O)Nc3nccs3)ccc21 (single isomer, unassigned) | Nav 1.5 (Homo sapiens (Human)) | rule not met |
| N#Cc1cc(C(F)(F)F)ccc1N1CCOc2cc(S(=O)(=O)Nc3nccs3)c(F)cc21 | Nav 1.5 (Homo sapiens (Human)) | rule met |
| N#Cc1cc(C(F)(F)F)ccc1N1CCOc2cc(S(=O)(=O)Nc3nccs3)cc(F)c21 | Nav 1.5 (Homo sapiens (Human)) | rule met |
| COc1nc(C(F)(F)F)ccc1N1CCOc2cc(S(=O)(=O)Nc3nccs3)ccc21 | Nav 1.5 (Homo sapiens (Human)) | rule not met |
| Cc1cc(F)cnc1N1CCOc2cc(S(=O)(=O)Nc3nccs3)ccc21 | Nav 1.5 (Homo sapiens (Human)) | rule not met |
| N#Cc1cc(C(F)(F)F)ccc1N1CCOc2cc(S(=O)(=O)Nc3nccs3)c(Cl)cc21 | Nav 1.5 (Homo sapiens (Human)) | rule met |
| O=S(=O)(Nc1ncns1)c1ccc2c(c1)OCCN2c1ccccc1 | Nav 1.5 (Homo sapiens (Human)) | rule not met |
| O=S(=O)(Nc1ncns1)c1ccc2c(c1)OCCN2c1cccc(OC(F)(F)F)c1 | Nav 1.5 (Homo sapiens (Human)) | rule not met |
| COc1ccc(F)cc1N1CCOc2cc(S(=O)(=O)Nc3nccs3)ccc21 | Nav 1.5 (Homo sapiens (Human)) | rule not met |

---

Measured on: Nav 1.5 (Homo sapiens (Human), UniProt Q14524)
Sequence (Q14524 whole entry): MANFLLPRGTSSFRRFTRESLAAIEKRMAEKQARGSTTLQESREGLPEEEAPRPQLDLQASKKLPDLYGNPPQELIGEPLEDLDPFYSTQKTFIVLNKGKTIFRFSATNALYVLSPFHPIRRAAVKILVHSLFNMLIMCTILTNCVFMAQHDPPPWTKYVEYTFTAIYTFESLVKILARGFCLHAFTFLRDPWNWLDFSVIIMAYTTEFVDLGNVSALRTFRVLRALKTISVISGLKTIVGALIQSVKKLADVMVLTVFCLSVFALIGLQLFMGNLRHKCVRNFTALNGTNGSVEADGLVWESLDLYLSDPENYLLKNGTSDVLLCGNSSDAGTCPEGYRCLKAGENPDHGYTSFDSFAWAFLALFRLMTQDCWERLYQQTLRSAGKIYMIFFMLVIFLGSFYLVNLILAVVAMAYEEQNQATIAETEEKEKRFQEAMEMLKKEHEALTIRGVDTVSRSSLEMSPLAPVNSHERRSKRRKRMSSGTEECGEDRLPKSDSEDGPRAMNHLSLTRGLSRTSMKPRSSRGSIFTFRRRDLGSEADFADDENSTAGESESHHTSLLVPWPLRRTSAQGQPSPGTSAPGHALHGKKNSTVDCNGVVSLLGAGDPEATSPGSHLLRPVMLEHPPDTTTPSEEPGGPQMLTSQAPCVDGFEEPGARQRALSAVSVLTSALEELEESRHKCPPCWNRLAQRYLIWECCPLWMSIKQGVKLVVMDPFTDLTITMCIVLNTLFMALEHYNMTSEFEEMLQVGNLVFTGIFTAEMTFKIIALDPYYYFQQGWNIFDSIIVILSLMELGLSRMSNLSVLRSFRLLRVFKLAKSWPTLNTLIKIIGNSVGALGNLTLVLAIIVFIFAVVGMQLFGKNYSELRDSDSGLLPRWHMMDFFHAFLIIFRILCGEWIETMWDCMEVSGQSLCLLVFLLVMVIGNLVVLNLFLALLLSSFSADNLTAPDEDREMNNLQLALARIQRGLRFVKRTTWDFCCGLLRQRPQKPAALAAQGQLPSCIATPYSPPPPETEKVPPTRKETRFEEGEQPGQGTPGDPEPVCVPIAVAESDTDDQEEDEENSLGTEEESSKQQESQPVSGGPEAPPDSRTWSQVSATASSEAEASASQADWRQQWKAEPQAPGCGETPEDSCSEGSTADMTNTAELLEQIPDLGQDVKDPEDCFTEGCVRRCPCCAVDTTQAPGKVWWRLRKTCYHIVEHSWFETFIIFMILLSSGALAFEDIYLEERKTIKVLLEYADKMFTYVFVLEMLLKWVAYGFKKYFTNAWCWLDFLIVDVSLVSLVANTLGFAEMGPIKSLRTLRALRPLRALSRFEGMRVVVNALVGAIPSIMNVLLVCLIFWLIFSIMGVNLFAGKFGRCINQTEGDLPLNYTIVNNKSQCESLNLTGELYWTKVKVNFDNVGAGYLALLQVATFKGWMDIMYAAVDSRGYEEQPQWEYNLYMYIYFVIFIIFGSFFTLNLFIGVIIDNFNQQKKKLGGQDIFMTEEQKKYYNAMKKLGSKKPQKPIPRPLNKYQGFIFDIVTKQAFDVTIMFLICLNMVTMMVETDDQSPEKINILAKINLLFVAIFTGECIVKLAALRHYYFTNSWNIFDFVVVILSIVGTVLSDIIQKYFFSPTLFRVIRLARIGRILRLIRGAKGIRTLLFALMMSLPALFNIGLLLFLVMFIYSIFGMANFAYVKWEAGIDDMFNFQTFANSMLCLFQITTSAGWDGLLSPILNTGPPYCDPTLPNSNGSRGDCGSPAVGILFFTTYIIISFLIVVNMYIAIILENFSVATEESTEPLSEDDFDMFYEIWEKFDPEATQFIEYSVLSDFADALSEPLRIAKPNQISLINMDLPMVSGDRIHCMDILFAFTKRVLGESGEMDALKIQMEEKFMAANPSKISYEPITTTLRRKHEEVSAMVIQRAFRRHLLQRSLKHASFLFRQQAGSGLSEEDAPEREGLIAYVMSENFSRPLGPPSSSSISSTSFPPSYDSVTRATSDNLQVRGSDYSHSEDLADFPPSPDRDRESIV
Protocol notes: Nav 1.5 in vitro assay, IonWorks Quattro (IWQ) population patch-clamp
Type: cell-based
Test context: HEK 293 cells stably transfected with Nav 1.5; 26th pulse to -20 mV
pIC50: −log10 of the molar value.

| Compound | Measured on | Value operator | pIC50 |
| --- | --- | --- | --- |
| CC1CN(c2ccc(C(F)(F)F)cc2C#N)c2ccc(S(=O)(=O)Nc3nccs3)cc2O1 (racemic) | Nav 1.5 (Homo sapiens (Human), UniProt Q14524) | = | 5.74 |
| O=S(=O)(Nc1cc(Cl)ncn1)c1ccc2c(c1)OCCN2c1ccc(C(F)(F)F)cc1Cl | Nav 1.5 (Homo sapiens (Human), UniProt Q14524) | < | 5.00 |
| CN1CC=C(c2cc(C(F)(F)F)ccc2N2CCOc3cc(S(=O)(=O)Nc4ncns4)ccc32)CC1 [Example 22, 2,2,2-Trifluoroacetate] | Nav 1.5 (Homo sapiens (Human), UniProt Q14524) | < | 5.00 |
| C[C@@H]1CN(c2ccc(C(F)(F)F)cc2C#N)c2ccc(S(=O)(=O)Nc3nccs3)cc2O1 (single isomer, unassigned) | Nav 1.5 (Homo sapiens (Human), UniProt Q14524) | = | 5.18 |
| O=S(=O)(Nc1ncns1)c1ccc2c(c1)OCCN2c1ccc(C(F)(F)F)cc1-c1cncnc1 | Nav 1.5 (Homo sapiens (Human), UniProt Q14524) | = | 5.27 |
| COc1cncc(N2CCOc3cc(S(=O)(=O)Nc4nccs4)ccc32)c1 | Nav 1.5 (Homo sapiens (Human), UniProt Q14524) | < | 5.00 |
| O=S(=O)(Nc1nccs1)c1ccc2c(c1)OCCN2c1cccc(Cl)c1 | Nav 1.5 (Homo sapiens (Human), UniProt Q14524) | = | 5.31 |
| Cc1c(Cl)cccc1N1CCOc2cc(S(=O)(=O)Nc3nccs3)ccc21 [Example 169, 2,2,2-Trifluoroacetate] | Nav 1.5 (Homo sapiens (Human), UniProt Q14524) | < | 5.00 |
| O=S(=O)(Nc1ncns1)c1ccc2c(c1)OCCN2c1ccc(C(F)(F)F)cc1-c1cccnc1 | Nav 1.5 (Homo sapiens (Human), UniProt Q14524) | = | 5.88 |
| O=S(=O)(Nc1nccs1)c1ccc2c(c1)OCCN2c1ccc(Cl)c(F)c1 [Example 155, 2,2,2-Trifluoroacetate] | Nav 1.5 (Homo sapiens (Human), UniProt Q14524) | < | 5.00 |
| COc1cc(C#N)ccc1N1CC(C)Oc2cc(S(=O)(=O)Nc3nccs3)ccc21 (racemic) | Nav 1.5 (Homo sapiens (Human), UniProt Q14524) | < | 5.00 |
| CCC1CN(c2ccc(C(F)(F)F)cc2C#N)c2ccc(S(=O)(=O)Nc3nccs3)cc2O1 (single isomer, unassigned) [Example 102] | Nav 1.5 (Homo sapiens (Human), UniProt Q14524) | < | 5.00 |
| O=S(=O)(Nc1cnccn1)c1ccc2c(c1)OCCN2c1ccc(C(F)(F)F)cc1C1=CCNCC1 | Nav 1.5 (Homo sapiens (Human), UniProt Q14524) | < | 5.00 |
| N#Cc1ccc(F)c(N2CCOc3cc(S(=O)(=O)Nc4nccs4)ccc32)c1 [Example 164, 2,2,2-Trifluoroacetate] | Nav 1.5 (Homo sapiens (Human), UniProt Q14524) | < | 5.00 |
| [N-]=[N+]=Nc1ccc(N2CCOc3cc(S(=O)(=O)Nc4nccs4)ccc32)c(Br)c1 [Example 64, 2,2,2-Trifluoroacetate] | Nav 1.5 (Homo sapiens (Human), UniProt Q14524) | < | 5.00 |
| COc1ccc(N2CCOc3cc(S(=O)(=O)Nc4nccs4)ccc32)c(OC)c1 | Nav 1.5 (Homo sapiens (Human), UniProt Q14524) | < | 5.00 |
| Cc1cc(N2CCOc3cc(S(=O)(=O)Nc4nccs4)ccc32)ccc1Cl [Example 156, 2,2,2-Trifluoroacetate] | Nav 1.5 (Homo sapiens (Human), UniProt Q14524) | = | 5.41 |
| COc1cc(-c2cccc(F)c2)ccc1N1CCOc2cc(S(=O)(=O)Nc3nccs3)ccc21 | Nav 1.5 (Homo sapiens (Human), UniProt Q14524) | = | 5.32 |
| O=S(=O)(Nc1nccs1)c1ccc2c(c1)OCCN2c1ccc(C(F)(F)F)cc1Cl | Nav 1.5 (Homo sapiens (Human), UniProt Q14524) | = | 5.39 |
| NCc1nsc(NS(=O)(=O)c2ccc3c(c2)OCCN3c2ccc(C(F)(F)F)cc2Cl)n1 [Example 8, 2,2,2-Trifluoroacetate] | Nav 1.5 (Homo sapiens (Human), UniProt Q14524) | < | 5.00 |
| Cc1ccc2cnccc2c1N1CCOc2cc(S(=O)(=O)Nc3nccs3)ccc21 [Example 73, 2,2,2-Trifluoroacetate] | Nav 1.5 (Homo sapiens (Human), UniProt Q14524) | < | 5.00 |
| N#Cc1cc(C(F)(F)F)ccc1N1CCOc2cc(S(=O)(=O)Nc3ccncn3)ccc21 | Nav 1.5 (Homo sapiens (Human), UniProt Q14524) | = | 5.94 |
| O=S(=O)(Nc1ccon1)c1ccc2c(c1)OCCN2c1ccc(C(F)(F)F)cc1Cl | Nav 1.5 (Homo sapiens (Human), UniProt Q14524) | < | 5.00 |
| O=S(=O)(Nc1ccno1)c1ccc2c(c1)OCCN2c1ccc(C(F)(F)F)cc1Cl | Nav 1.5 (Homo sapiens (Human), UniProt Q14524) | < | 5.00 |
| O=S(=O)(Nc1nccs1)c1ccc2c(c1)OCCN2c1ccc(C(F)(F)F)cc1C(O)CO (stereo not drawn) | Nav 1.5 (Homo sapiens (Human), UniProt Q14524) | = | 6.20 |
| N#Cc1cc(-c2ccc(F)cc2)ccc1N1CCOc2cc(S(=O)(=O)Nc3nccs3)ccc21 | Nav 1.5 (Homo sapiens (Human), UniProt Q14524) | = | 5.91 |
| Nc1cc(-c2cc(C(F)(F)F)ccc2N2CCOc3cc(S(=O)(=O)Nc4ncns4)ccc32)ccn1 | Nav 1.5 (Homo sapiens (Human), UniProt Q14524) | = | 6.20 |
| COc1ccc(C(F)(F)F)cc1N1CCOc2cc(S(=O)(=O)Nc3nccs3)ccc21 | Nav 1.5 (Homo sapiens (Human), UniProt Q14524) | = | 5.30 |
| Cc1cc(N2CCOc3cc(S(=O)(=O)Nc4nccs4)ccc32)c(C)cn1 | Nav 1.5 (Homo sapiens (Human), UniProt Q14524) | < | 5.00 |
| Cc1ccc(C#N)c(N2CCOc3cc(S(=O)(=O)Nc4nccs4)ccc32)c1 | Nav 1.5 (Homo sapiens (Human), UniProt Q14524) | = | 5.44 |
